procedure-summary: Lipophilicity, logD of compound
Type: physicochemical
protocol-conditions: octanol/water
readout: logD

1) Cc1nnc(-c2nn(C)c3ccc(Nc4nccc(-c5cc(CN(C)C)n(C)n5)n4)cc23)o1
2.6
2) COC(=O)c1nn(C)c2c(C)cc(Nc3nccc(-c4cc(CN(C)C)n(C)n4)n3)cc12
3.2
3) CN(C)Cc1cnn(-c2ccnc(Nc3ccc4c(c3)c(C(=O)N(C)C)nn4C)n2)c1
1.7
4) CNC(=O)c1nn(C)c2ccc(Nc3nccc(-n4cc(CN(C)C)c(F)n4)n3)cc12
2.8
5) CNC(=O)c1nn(C)c2ccc(Nc3nccc(-c4cc(CN(C)C)n(C)n4)n3)cc12
2.2

Briefly, logD measured for CNC(=O)c1nc(C)n2ccc(Nc3nccc(-n4cc([C@@H]5C[C@H](O)CN5C)cn4)n3)cc12 : 2

Sample CNC(=O)c1nn(C)c2ccc(Nc3nccc(-n4cc(CN5CC(O)C5)c(C)n4)n3)cc12 ; logD observed: 1.9
